FYI, the data here is from PubChem BioAssay (EPA / NIEHS).

Experiment: APR_HepG2_CellCycleArrest_72hr: Apredica 72-hour HepG2 Assay for Cell Cycle Arrest (AID 2282914)
Settings: high-content imaging, actives raise or lower the signal
The source made the active and inactive calls. How the source made its calls: active means hit-call score of the fitted dose curve at least 0.9, where 1 is the maximum; inactive means score below 0.9.
Log the outcome using a class from True (active), False (inactive)

compound | class_name
COc1nc(C)nc(NC(=O)NS(=O)(=O)c2ccccc2CCC(F)(F)F)n1 | False
C#CCOS(=O)OC1CCCCC1Oc1ccc(C(C)(C)C)cc1 (configuration not stated) | True
CNC(=S)S | False
CCNc1nc(Cl)nc(NCC)n1 | False
CCON=C(CC)C1=C(O)CC(c2c(C)cc(C)cc2C)CC1=O (configuration not stated) | False

Inquiry: Could you check what this test reported for "Fc1ccc(Oc2ccnc3cc(Cl)cc(Cl)c23)cc1" ?
Reply text: False

Inquiry: Just curious, what result did N#CC(CCc1ccc(Cl)cc1)(Cn1cncn1)c1ccccc1 (configuration not stated) get here?
Reply text: False
